target: recombinant human FGFR1 catalytic domain (amino acids 308-731) (Homo sapiens (Human)); test: FGFR1 enzyme activity assay (LanthaScreen TR-FRET); conditions: 20 min incubation at 22° C., average of multiple determinations if made, read-out: FGFR1 Enz FRET IC50
Sequence (P11362 other isoform, or with tags, fused parts or gaps): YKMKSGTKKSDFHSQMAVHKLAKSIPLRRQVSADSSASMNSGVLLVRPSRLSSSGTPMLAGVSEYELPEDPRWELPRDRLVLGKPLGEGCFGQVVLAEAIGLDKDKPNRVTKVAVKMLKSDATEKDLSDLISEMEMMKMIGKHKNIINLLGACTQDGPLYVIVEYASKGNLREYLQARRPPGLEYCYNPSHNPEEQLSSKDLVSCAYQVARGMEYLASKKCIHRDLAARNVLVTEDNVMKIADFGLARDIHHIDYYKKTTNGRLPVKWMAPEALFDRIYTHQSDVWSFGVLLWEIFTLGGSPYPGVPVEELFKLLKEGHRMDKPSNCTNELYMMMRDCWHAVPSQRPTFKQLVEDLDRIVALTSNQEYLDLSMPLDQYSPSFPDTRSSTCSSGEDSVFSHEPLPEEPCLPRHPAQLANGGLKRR
measured_attribute: IC50 (nM)
Please reply with the bare figure in nM and do not write the unit itself.

> print(dat)
                               smiles.entry                           subject.of.test  measured.attribute  readout.units  endpoint.result
1  C=CC(=O)N1CC(C(=O)N2CC(n3cc(-c4cc(OC)c5c(C#N)cnn5c4)cn3)C2)C1  recombinant human FGFR1 catalytic domain (amino acids 308-731) (Homo sapiens (Human))                IC50             nM               17

Lab book: IC50 of `C=CC(=O)N1CC(C(=O)N2CCC(n3cc(-c4cc(OC)c5c(C#N)cnn5c4)c(CC)n3)CC2)C1` noted as 117

The measured IC50 associated with `COc1cc(-c2cnc(N3CCN(C(=O)C4(F)CN(C(=O)/C=C/CN(C)C)C4)CC3)cc2C)cn2ncc(C#N)c12` reads 156

# IC50 of `COc1cc(-c2cnn(C3CCN(C(=O)C4CN(C(=O)/C=C/CN(C)C)C4)CC3)c2)cn2ncc(C#N)c12` = 10

====

molecular target: recombinant human FGFR3 (amino acids R397-T806) (Homo sapiens (Human), UniProt P22607); experiment: FGFR3 enzyme activity assay (LanthaScreen TR-FRET); conditions: 25 μM ATP, 10 min incubation at 22° C., average of multiple determinations if made, read-out: FGFR3 Enz FRET IC50
Sequence (P22607 397-806): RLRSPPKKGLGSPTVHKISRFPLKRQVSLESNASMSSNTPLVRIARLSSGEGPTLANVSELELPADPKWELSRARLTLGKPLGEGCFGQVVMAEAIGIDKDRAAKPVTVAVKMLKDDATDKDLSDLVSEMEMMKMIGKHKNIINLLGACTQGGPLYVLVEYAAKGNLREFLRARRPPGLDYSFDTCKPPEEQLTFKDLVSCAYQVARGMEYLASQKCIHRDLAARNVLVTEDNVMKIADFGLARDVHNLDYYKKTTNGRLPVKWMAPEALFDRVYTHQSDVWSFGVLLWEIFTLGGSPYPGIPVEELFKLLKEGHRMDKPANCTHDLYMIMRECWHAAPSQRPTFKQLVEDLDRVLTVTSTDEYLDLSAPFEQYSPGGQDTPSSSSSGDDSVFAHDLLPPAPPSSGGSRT
pIC50: −log10 of the molar value.
Class Criterion met: pIC50 at least 8. Class Criterion not met: pIC50 below 8.

// query I'd appreciate it if you could say whether `C=CC(=O)Nc1cccc(C(=O)N2CCC[C@@H](n3cc(-c4cc(OC)c5c(C#N)cnn5c4)cn3)C2)c1` has pIC50 at least equal to 8.
// result Criterion not met

// query Is pIC50 for `COc1cc(-c2cnn(C3CCN(C(=O)C4CN(C(=O)/C=C/CCl)C4)CC3)c2)cn2ncc(C#N)c12` at or above 8?
// result Criterion met

// query API: above_or_equal(metric=pIC50, cutoff=8) for item `C=CC(=O)N1CC(C(=O)N2C[C@@H]3C[C@H]2CN3c2ccc(-c3cc(OC)c4c(C#N)cnn4c3)cn2)C1`
// result Criterion not met

// query # bool: pIC50 of `C=CC(=O)N[C@H]1CC[C@H](C(=O)N2CC[C@H](n3cc(-c4cc(OC)c5c(C#N)cnn5c4)cn3)C2)CC1` >= 8
// result Criterion met

// query Could you please find out whether `C=CC(=O)N[C@H]1CC[C@@H](C(=O)N2CCC(n3cc(-c4cc(OC)c5c(C#N)cnn5c4)cn3)CC2)CC1` has pIC50 that meets 8 or exceeds it?
// result Criterion met

// query Say whether `COc1cc(-c2cnn(C3CCN(C(=O)C4CN(C(=O)C#CCN(C)C)C4)CC3)c2)cn2ncc(C#N)c12` shows pIC50 of 8 or more.
// result Criterion not met

// query Is reported pIC50 greater than or equal to 8 here: `C=CC(=O)N1CCC(C#N)(C(=O)N2CCC(n3cc(-c4cc(OC)c5c(C#N)cnn5c4)cn3)CC2)CC1`
// result Criterion met
